# assay target: CCL2 R18A R41A (Homo sapiens)
# protocol text: SPR
# cond: all L-ribonucleotides (L-RNA, mirror image); SPR (Biacore 2000), chemokine immobilized on CM4/CM5, physiological running buffer, 37 C; complex formation in 20 mM HEPES pH 7.4, 100 mM NaCl, 5 mM KCl, 1 mM …
measured metric: Kd
Lab note: write values as number then unit, every time.

[ask] Given GCACGUCCCUCACCGGUGCAAGUGAAGCCGUGGCUCUGCG [NOX-E36 L-aptamer (Spiegelmer, without PEG)] , state its recorded Kd.
[reply] 14.1 nM

====

# assay target: CCL2 R24A R47A (Homo sapiens) (UniProt P13500)
# Sequence (P13500 24-99 R47A): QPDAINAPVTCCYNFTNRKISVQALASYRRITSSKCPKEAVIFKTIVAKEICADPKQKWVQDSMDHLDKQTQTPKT
# protocol text: SPR
# cond: all L-ribonucleotides (L-RNA, mirror image); SPR (Biacore 2000), chemokine immobilized on CM4/CM5, physiological running buffer, 37 C; complex formation in 20 mM HEPES pH 7.4, 100 mM NaCl, 5 mM KCl, 1 mM …
measured metric: pKd
Units for pKd: none; it is -log10 of a concentration expressed in mol/L.

[ask] Sample GCACGUCCCUCACCGGUGCAAGUGAAGCCGUGGCUCUGCG [NOX-E36 L-aptamer (Spiegelmer, without PEG)] — what was its pKd?
[reply] 5.08

====

# assay target: CCL2 (MCP-1), wild type (Homo sapiens)
# protocol text: SPR
# cond: all L-ribonucleotides (L-RNA, mirror image); SPR (Biacore 2000), chemokine immobilized on CM4/CM5, physiological running buffer, 37 C; complex formation in 20 mM HEPES pH 7.4, 100 mM NaCl, 5 mM KCl, 1 mM …
measured metric: pKd
Please treat pKd as minus the base-10 logarithm of the molar concentration.

[ask] Which pKd is reported for this sequence? GCACGUCCCUCACCGGUGCAAGUGAAGCCGUGGCUCUGCG [NOX-E36 L-aptamer (Spiegelmer, without PEG)]
[reply] 8.88

====

# assay target: CCL2 S63F S86F (Homo sapiens) (UniProt P13500)
# Sequence (P13500 24-99 S86F): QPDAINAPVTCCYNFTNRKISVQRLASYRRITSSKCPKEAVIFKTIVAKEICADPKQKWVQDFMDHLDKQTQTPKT
# protocol text: SPR
# cond: all L-ribonucleotides (L-RNA, mirror image); SPR (Biacore 2000), chemokine immobilized on CM4/CM5, physiological running buffer, 37 C; complex formation in 20 mM HEPES pH 7.4, 100 mM NaCl, 5 mM KCl, 1 mM …
measured metric: Kd (nM)
Reply with just the number (in nM).

[ask] Which Kd is reported with CCL2 S63F S86F (Homo sapiens) (UniProt P13500) for this entry: GCACGUCCCUCACCGGUGCAAGUGAAGCCGUGGCUCUGCG [NOX-E36 L-aptamer (Spiegelmer, without PEG)] ?
[reply] 54.4

====

# assay target: CCL2 S63Y S86Y (Homo sapiens) (UniProt P13500)
# Sequence (P13500 24-99 S86Y): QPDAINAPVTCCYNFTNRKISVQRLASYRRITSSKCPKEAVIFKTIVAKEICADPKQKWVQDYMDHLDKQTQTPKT
# protocol text: SPR
# cond: all L-ribonucleotides (L-RNA, mirror image); SPR (Biacore 2000), chemokine immobilized on CM4/CM5, physiological running buffer, 37 C; complex formation in 20 mM HEPES pH 7.4, 100 mM NaCl, 5 mM KCl, 1 mM …
measured metric: Kd (µM)
Numbers only here, please. The scale is µM.

[ask] Value lookup for Kd; key = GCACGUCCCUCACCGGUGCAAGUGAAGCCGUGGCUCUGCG [NOX-E36 L-aptamer (Spiegelmer, without PEG)]
[reply] 0.0744

====

# assay target: CCL11 (eotaxin) (Homo sapiens)
# protocol text: SPR
# cond: all L-ribonucleotides (L-RNA, mirror image); SPR (Biacore 2000), chemokine immobilized on CM4/CM5, physiological running buffer, 37 C; complex formation in 20 mM HEPES pH 7.4, 100 mM NaCl, 5 mM KCl, 1 mM …
measured metric: Kd (nM)
Give a bare numeral; the unit nM is implied.

[ask] Returns the measured Kd for the input sequence. Input: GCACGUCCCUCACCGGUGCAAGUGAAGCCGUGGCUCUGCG [NOX-E36 L-aptamer (Spiegelmer, without PEG)]
[reply] 3.06

The measured values listed here are drawn from paper PMC4423205.
